Taken from the MegaScale stability set (Tsuboyama et al. 2023).

Exercise: for every item that follows, state its recorded folding stability dG.
B1: EHEE_rd2_0191 (parent)
chain: TTEYTFTDDEEARRAIEELKKRGLTFRYEKHGTTWRVRVD

Variants of: B1
experiment-description: folding stability dG (cDNA display proteolysis); higher = more stable
cond: PBS, room temperature
Numbers only, in kcal/mol.

Reference set, count: 8
biopolymer-sequence	folding stability dG (kcal/mol)
TTEYTFTDDEEARRAIEELKKRGLTFRYEKHGTTWRVRVN	2.04
TTEFTFTDDEEARRAIEELKKRGLTFRYEKHGTTWRVRVD	1.99
TTEYTFTDDEEAHRAIEELKKRGLTFRYEKHGTTWRVRVD	1.98
TTEYTFTDDEEARRAIEELQKRGLTFRYEKHGTTWRVRVD	2
TTEYTFTDDEMARRAIEELKKRGLTFRYEKHGTTWRVRVD	2.02
TTEYTFTDDEEARRAIEELKKRGLTFRYEKHGTTWRVRVR	1.95
TTEYTFTDDEEARRAIEELKKRGLLFRYEKHGTTWRVRVD	1.97
TTEYTFTDDEEARRAIEELKKRGLTFKYEKHGTTWRVRVD	2

Query (variant): TTEYTFTDDEEARRAIEELKKRGATFRYEKHGTTWRVRVD ; field requested: folding stability dG
2
